Target: acetylcholinesterase (Rattus norvegicus)
Sequence (P37136 32-614): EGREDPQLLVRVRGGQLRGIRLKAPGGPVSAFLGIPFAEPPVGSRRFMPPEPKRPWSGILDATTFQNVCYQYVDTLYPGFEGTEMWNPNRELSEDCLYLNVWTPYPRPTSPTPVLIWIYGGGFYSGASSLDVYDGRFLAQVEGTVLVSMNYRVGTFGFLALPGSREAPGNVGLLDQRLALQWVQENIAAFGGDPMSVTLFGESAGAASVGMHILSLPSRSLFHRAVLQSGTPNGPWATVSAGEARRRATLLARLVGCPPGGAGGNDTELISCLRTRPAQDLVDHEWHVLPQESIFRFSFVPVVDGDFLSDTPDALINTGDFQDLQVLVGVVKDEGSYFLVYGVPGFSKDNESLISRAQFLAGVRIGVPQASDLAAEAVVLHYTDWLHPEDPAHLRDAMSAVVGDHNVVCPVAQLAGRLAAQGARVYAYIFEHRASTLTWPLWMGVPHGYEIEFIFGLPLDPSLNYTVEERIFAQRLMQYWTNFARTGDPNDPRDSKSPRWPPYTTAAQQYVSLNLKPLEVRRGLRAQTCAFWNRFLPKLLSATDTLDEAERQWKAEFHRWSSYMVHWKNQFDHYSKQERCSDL
pIC50: −log10 of the molar value. Where a name gives a salt, the structure may show the parent alone.
pIC50 vs 9: at or above is y, below is n.

Molecule: CCOc1cc2c(cc1OCC)C(=O)C(CC1CCN(Cc3cccc(C)c3)CC1)C2 (stereo not shown) [Example 15, hydrochloride]
Target desc: acetylcholinesterase (Rattus norvegicus)
Qualitative label: n
--
Molecule: COc1cc2c(cc1OCC#N)CC(CC1CCN(Cc3ccccc3)CC1)C2=O (stereo not shown) [Example 7, hydrochloride]
Target desc: acetylcholinesterase (Rattus norvegicus)
Qualitative label: n
--
Molecule: CCCOc1cc2c(cc1OC)C(=O)C(CC1CCN(Cc3ccccc3)CC1)C2 (stereo not shown) [Example 2, hydrochloride]
Target desc: acetylcholinesterase (Rattus norvegicus)
Qualitative label: n
--
Molecule: CCOc1cc2c(cc1OC)C(=O)C(F)(CC1CCN(Cc3ccccc3)CC1)C2 (stereo not shown) [Example 38, hydrochloride]
Target desc: acetylcholinesterase (Rattus norvegicus)
Qualitative label: y
--
Molecule: CCOc1cc2c(cc1OCC)C(=O)C(CC1CCN(Cc3cccc(F)c3)CC1)C2 (stereo not shown) [Example 9, hydrochloride]
Target desc: acetylcholinesterase (Rattus norvegicus)
Qualitative label: n
